For reference, the following pIC50 results for PAK2 (PAK65) (Homo sapiens, UniProt Q13177) were taken from various sources.
pIC50: −log10 of the molar value.

Reference set, count: 2
> print(dat)
                                   molecule                           target.of.assay  measured.endpoint  reported.result
1  CCn1c(=O)c(-c2ccc(-c3cccnc3F)cc2Cl)cc2cnc(Nc3ccc(C4CCN5CCCC5C4)cc3)nc21 (centres unmarked)  PAK2 (PAK65) (Homo sapiens, UniProt Q13177)              pIC50           > 7.30
2  CCn1c(=O)c(-c2ccc(-c3ccnc(C)c3)cc2Cl)cc2cnc(Nc3ccc(N4CCN(C)CC4)cc3)nc21  PAK2 (PAK65) (Homo sapiens, UniProt Q13177)              pIC50           > 7.30

QUERY: Lab note: need pIC50 with PAK2 (PAK65) (Homo sapiens, UniProt Q13177) for entry CCn1c(=O)c(-c2ccc(-c3scnc3C)cc2Cl)cc2cnc(Nc3ccc(N4CCN(C(C)C)CC4)cc3)nc21 , please look it up.
Sequence (Q13177 whole entry): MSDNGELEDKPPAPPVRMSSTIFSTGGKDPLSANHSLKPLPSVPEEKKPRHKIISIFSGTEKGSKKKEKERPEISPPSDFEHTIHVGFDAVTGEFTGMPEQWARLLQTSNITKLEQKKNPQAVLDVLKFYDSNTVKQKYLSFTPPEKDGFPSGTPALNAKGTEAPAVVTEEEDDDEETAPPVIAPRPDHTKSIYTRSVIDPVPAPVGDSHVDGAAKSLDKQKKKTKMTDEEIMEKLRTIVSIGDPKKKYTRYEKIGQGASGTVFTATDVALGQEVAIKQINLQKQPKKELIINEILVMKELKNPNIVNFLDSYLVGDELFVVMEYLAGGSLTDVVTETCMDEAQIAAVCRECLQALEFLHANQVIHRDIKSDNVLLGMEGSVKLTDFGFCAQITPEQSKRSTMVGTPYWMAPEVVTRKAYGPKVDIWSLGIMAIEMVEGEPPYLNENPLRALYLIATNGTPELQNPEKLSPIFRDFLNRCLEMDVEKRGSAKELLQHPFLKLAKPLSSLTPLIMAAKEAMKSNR
RESULT: > 7.30

QUERY: Entry to check: CCn1c(=O)c(-c2ccc(-c3nccnc3C)cc2C)cc2cnc(Nc3ccc(C4CCN(C)CC4)cc3)nc21
RESULT: > 7.30

QUERY: Entry to check: CCn1c(=O)c(-c2ccc(-c3cccnc3C)cc2F)cc2cnc(Nc3ccc(C4CCN(C)CC4)cc3)nc21
RESULT: 6.30 to 7.30

QUERY: Entry to check: CN1CCC(c2ccc(Nc3ncc4ccc(=O)n(Cc5c(F)cccc5C5CC5)c4n3)cc2)CC1
RESULT: 6.30 to 7.30

QUERY: Entry to check: CN1CCN(c2ccc(Nc3ncc4ccc(=O)n(Cc5c(F)cccc5Cl)c4n3)cc2)CC1
RESULT: > 6.00

QUERY: Entry to check: O=c1ccc2cnc(Nc3ccc(N4CCNCC4)c(F)c3)nc2n1Cc1c(Cl)cccc1C1CC1
RESULT: > 6.00

QUERY: Entry to check: CCn1c(=O)c(-c2ccc(-c3cccnc3F)cc2Cl)cc2cnc(Nc3ccc(CCN4CCCC4)cc3)nc21
RESULT: > 7.30

====

For reference, the following IC50 results for PAK2 (PAK65) (Homo sapiens, UniProt Q13177) were taken from various sources.

> print(dat)
                                   molecule  reported.result
1  CCn1c(=O)c(-c2ccc(S(C)(=O)=O)cc2)cc2cnc(Nc3ccc(N4CCN(C)CC4)cc3)nc21        > 5000 nM
2  Cc1nc(-c2ccc(-c3cc4cnc(Nc5ccc(CCN(C)C)cc5)nc4n(C)c3=O)c(Cl)c2)no1          < 50 nM
3  Cc1cccc(F)c1Cn1c(=O)ccc2cnc(Nc3ccc(N4CCN(C)CC4)cc3)nc21        < 1000 nM

QUERY: For the compound CC(=O)Nc1ccnc(-c2ccc(Cl)c(-c3cc4cnc(Nc5ccc(C6CCN(C)CC6)cc5)nc4n(C)c3=O)c2)n1 , what IC50 is on record?
RESULT: > 5000 nM

QUERY: Entry to check: Cc1nc(-c2ccc(-c3cc4cnc(Nc5ccc(C6CCN(C)CC6)cc5)nc4n(C)c3=O)c(C)c2)no1
RESULT: < 50 nM

QUERY: Entry to check: CCn1c(=O)c(-c2ccc(-c3ccsc3)cc2)cc2cnc(Nc3ccc(N4CCN(C)CC4)cc3)nc21
RESULT: 500 to 5000 nM

QUERY: Entry to check: CCn1c(=O)c(-c2ccc(-c3ccnc(C(=O)NC)c3)cc2Cl)cc2cnc(Nc3ccc(C4CCNCC4)c(F)c3)nc21
RESULT: 50 to 500 nM

QUERY: Entry to check: CCn1c(=O)c(-c2ccc(-c3ccnn3C)cc2)cc2cnc(Nc3ccc(N4CCN(C)CC4)cc3)nc21
RESULT: 500 to 5000 nM
